Biological target: protein F of hRSV strain B-1 (on RSV B-1-infected Hep2 cells and on virus) (human respiratory syncytial virus, …, UniProt P13843 26-574)
Test: cell-based or functional assay
PROPERTY: Neutralization B-1 IC50

Past entries and their recorded results:
# BINDER, PROPERTY, READING
rows = [
    ("Nanobody 8B10 (VHH, also called PMP8B10; PRSV8B10) VHH: EVQLVESGGGLVQAGASLRLSCAASGLAFSRYAMGWFRQAPGKERESVAAISSSGDNIYYADSVKGQFTMSRDNAKSSVYLQMINLKPEDTAVYYCAATSPLFVASDYFEASRYGYWGQGTQVTVSS", "Neutralization B-1 IC50", "> 15 µM"),
    ("Nanobody 1G8 (VHH, also called PMP1G8; PRSV1G8) VHH: EVQLVESGGGSVQAGGSLRLSCAASGGSFNRFGMGWFRRAPGKERDFVAAINLSGDTTYYVDSVQGRFTISRDNANNIMYLQMNLLKPEDTADYYCAADPDPITAWKQSGAGMDYWGKGTQVTVSS", "Neutralization B-1 IC50", "> 10 µM"),
]

Turning now to a further record.
For record Nanobody 23E5 (VHH, also called PMP23E5; PRSV23E5) VHH: EVQLMESGGGLVQAGGSLRLSCAASGGTFSSYAMGWFRQAPGEERDFVAAIGWSGNSPYYAQFVKGRFTISRDNAKNTVHLQMNSLKPEDTAVYYCAAAHNTMGSDYEGYDYWGQGTQVTVSS the listed Neutralization B-1 IC50 is > 15 µM

The measured values listed here are drawn from patent US20120301469A1.
